System tested: Human recombinant MMP-9 (Homo sapiens)
Construct: made in house; host or cells: MMP-9-transfected HT1080 cells (spent media)
Sequence (P14780 107-707 limits assumed): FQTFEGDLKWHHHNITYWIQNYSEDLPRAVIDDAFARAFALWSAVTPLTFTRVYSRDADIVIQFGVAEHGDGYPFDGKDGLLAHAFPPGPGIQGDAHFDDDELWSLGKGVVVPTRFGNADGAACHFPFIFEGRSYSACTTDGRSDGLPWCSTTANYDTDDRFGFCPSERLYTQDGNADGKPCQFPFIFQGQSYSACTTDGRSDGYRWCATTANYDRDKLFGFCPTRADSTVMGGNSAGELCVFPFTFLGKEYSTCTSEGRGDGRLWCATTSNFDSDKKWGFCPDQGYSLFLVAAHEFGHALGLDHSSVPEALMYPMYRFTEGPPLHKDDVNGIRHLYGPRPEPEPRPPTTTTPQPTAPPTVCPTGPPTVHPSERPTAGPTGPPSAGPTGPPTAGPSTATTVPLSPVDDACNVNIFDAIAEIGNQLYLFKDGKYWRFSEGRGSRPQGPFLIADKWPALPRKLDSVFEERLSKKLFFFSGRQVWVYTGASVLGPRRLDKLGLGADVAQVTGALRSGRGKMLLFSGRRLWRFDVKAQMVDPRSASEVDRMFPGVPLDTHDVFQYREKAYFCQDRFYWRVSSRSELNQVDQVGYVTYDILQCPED
Method summary: In vitro MMP inhibition analysis (fluorogenic peptide substrate cleavage), Ki
Assay type: biochemical
Test parameters: Table 2
pKi: −log10 of the molar value.
Attribute: pKi
Assay endpoint: pKi

| Molecule | Test value |
| --- | --- |
| COCCOC1CCC(C(=O)NO)(S(=O)(=O)c2ccc(-c3cnc(CCCC(F)(F)F)cn3)cc2)CC1 (stereo not shown) [Example 210] | 9.12 |
| CN1CCC(C(=O)NO)(S(=O)(=O)c2ccc(-c3ccc(OC(F)(F)C(F)F)cc3)cc2)CC1 [Example 146] | 9.32 |
| O=C1c2ccccc2C(=O)N1CCCOc1cccc(-c2ccc(S(=O)(=O)C3(C(=O)NO)CCOCC3)cc2)c1 [Example 196] | 6.37 |
| O=C(NO)C1(S(=O)(=O)c2ccc(-c3cnc(CCC(F)(F)F)cn3)cc2)CCN(C2CC2)CC1 [Example 215] | 9.00 |
